# Tested on: chymotrypsin
# protocol summary: The compound was tested […] for chymotrypsin susceptibility (degradation)
# Format: ADME
We'd kindly ask you to apply these half-life classes: zone 1 = under 10 min, zone 2 = from 10 min up to 200 min, zone 3 = 200 min and over

compound_structure=CC(C)C[C@H](O)[C@H](O)[C@H](CC1CCCCC1)NC(=O)[C@H](Cc1c[nH]cn1)NC(=O)/C(=C/c1ccccc1)CC(=O)N1CCOCC1 target_system=chymotrypsin label_value="zone 3"
compound_structure=COc1ccc(C[C@H](NC(=O)N2CCOCC2)C(=O)N[C@@H](Cc2cnc[nH]2)C(=O)N[C@@H](CC2CCCCC2)[C@@H](O)[C@@H](O)CC(C)C)cc1 target_system=chymotrypsin label_value="zone 3"
compound_structure=CC(C)C[C@H](O)[C@H](O)[C@H](CC1CCCCC1)NC(=O)[C@H](Cc1c[nH]cn1)NC(=O)[C@H](Cc1ccccc1)OC(=O)N1CCOCC1 target_system=chymotrypsin label_value="zone 3"
compound_structure=CC(C)C[C@H](O)[C@H](O)[C@H](CC1CCCCC1)NC(=O)[C@H](Cc1c[nH]cn1)NC(=O)[C@H](CCc1ccccc1)NC(=O)N1CCOCC1 target_system=chymotrypsin label_value="zone 1"
compound_structure=CC(C)C[C@H](O)[C@H](O)[C@H](CC1CCCCC1)NC(=O)[C@H](Cc1c[nH]cn1)NC(=O)[C@@H](CC(=O)N1CCOCC1)Cc1ccccc1 target_system=chymotrypsin label_value="zone 3"
compound_structure=CC(C)C[C@H](O)[C@H](O)[C@H](CC1CCCCC1)NC(=O)[C@H](Cc1c[nH]cn1)NC(=O)[C@H](Cc1ccccc1)NC(=O)N1CCNCC1 target_system=chymotrypsin label_value="zone 1"
compound_structure=CC(C)C[C@H](O)[C@H](O)[C@H](CC1CCCCC1)NC(=O)[C@H](Cc1cnc[nH]1)NC(=O)[C@H](Cc1ccccc1)NC(=O)N1CCOCC1 target_system=chymotrypsin label_value="zone 1"
compound_structure=CC(C)C[C@H](O)[C@H](O)[C@H](CC1CCCCC1)NC(=O)[C@H](Cc1c[nH]cn1)NC(=O)[C@H](Cc1ccccc1)NC(=O)N1CCC(O)CC1 target_system=chymotrypsin label_value="zone 1"
compound_structure=CC(C)C[C@H](O)[C@H](O)[C@H](CC1CCCCC1)NC(=O)[C@H](Cc1c[nH]cn1)NC(=O)[C@H](Cc1ccccc1)NC(=O)N(C)C target_system=chymotrypsin label_value="zone 2"
compound_structure=CC(C)C[C@H](O)[C@H](O)[C@H](CC1CCCCC1)NC(=O)[C@H](Cc1cnc[nH]1)NC(=O)[C@H](Cc1ccccc1)NC(=O)N(C)CCO target_system=chymotrypsin label_value="zone 2"

----------
Items are presented alongside their recorded inhibition.
# target system: Cathepsin D (Bos taurus) (UniProt P80209)
# Sequence (whole entry): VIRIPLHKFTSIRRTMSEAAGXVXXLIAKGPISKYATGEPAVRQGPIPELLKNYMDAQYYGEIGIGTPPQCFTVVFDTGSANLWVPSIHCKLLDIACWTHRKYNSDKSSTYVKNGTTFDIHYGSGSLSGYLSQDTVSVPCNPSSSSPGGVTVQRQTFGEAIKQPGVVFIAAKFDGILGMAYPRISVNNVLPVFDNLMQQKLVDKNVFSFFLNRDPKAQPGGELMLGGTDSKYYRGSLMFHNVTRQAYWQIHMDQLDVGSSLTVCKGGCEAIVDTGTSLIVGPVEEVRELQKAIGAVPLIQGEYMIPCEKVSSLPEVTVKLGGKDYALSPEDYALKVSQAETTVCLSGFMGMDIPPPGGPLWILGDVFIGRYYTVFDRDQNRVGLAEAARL
# protocol summary: Inhibition of bovine cathepsin D at 1*10e-5
# assay setup: concentration not given here
experimental endpoint: inhibition (%)

compound_structure=CC(C)C[C@H](O)[C@H](O)[C@H](CC1CCCCC1)NC(=O)[C@H](Cc1c[nH]cn1)NC(=O)[C@H](CCc1ccccc1)NC(=O)N1CCOCC1 result=0
compound_structure=CC(C)C[C@H](O)[C@H](O)[C@H](CC1CCCCC1)NC(=O)[C@H](Cc1c[nH]cn1)N(C)C(=O)[C@H](Cc1ccccc1)NC(=O)N1CCOCC1 result=0
compound_structure=CC(C)C[C@H](O)[C@H](O)[C@H](CC1CCCCC1)NC(=O)[C@H](Cc1c[nH]cn1)NC(=O)[C@@H](NC(=O)N1CCOCC1)C(C)(C)c1ccccc1 result=3
compound_structure=CC(C)C[C@H](O)[C@H](O)[C@H](CC1CCCCC1)NC(=O)[C@H](Cc1c[nH]cn1)NC(=O)/C(=C/c1ccccc1)CC(=O)N1CCOCC1 result=0
compound_structure=COc1ccc(C[C@H](NC(=O)N2CCOCC2)C(=O)N[C@@H](Cc2c[nH]cn2)C(=O)N[C@@H](CC2CCCCC2)[C@@H](O)[C@@H](O)CC(C)C)cc1 result=3
compound_structure=CC(C)C[C@H](O)[C@H](O)[C@H](CC1CCCCC1)NC(=O)[C@H](Cc1c[nH]cn1)NC(=O)[C@H](Cc1ccccc1)NC(=O)N1CCOCC1 result=0
compound_structure=CC(C)C[C@H](O)[C@H](O)[C@H](CC1CCCCC1)NC(=O)[C@H](Cc1c[nH]cn1)NC(=O)[C@H](Cc1ccccc1)NC(=O)N(C)CCO result=0
compound_structure=CC(C)C[C@H](O)[C@H](O)[C@H](CC1CCCCC1)NC(=O)[C@H](Cc1c[nH]cn1)NC(=O)[C@@H](Cc1ccccc1)NC(=O)N1CCOCC1 result=1
compound_structure=CC(C)C[C@H](O)[C@H](O)[C@H](CC1CCCCC1)NC(=O)[C@H](Cc1c[nH]cn1)NC(=O)[C@H](Cc1ccccc1)OC(=O)N1CCOCC1 result=0
compound_structure=CC(C)C[C@H](O)[C@H](O)[C@H](CC1CCCCC1)NC(=O)[C@H](Cc1c[nH]cn1)NC(=O)[C@H](Cc1ccccc1)NC(=O)N1CCC(O)CC1 result=2
compound_structure=CC(C)C[C@H](O)[C@H](O)[C@H](CC1CCCCC1)NC(=O)[C@H](Cc1c[nH]cn1)NC(=O)/C(=C/c1ccccc1)NC(=O)N1CCOCC1 result=0

----------
# target system: Pepsin A (Sus scrofa) (UniProt P00791)
# Sequence (P00791 60-385 limits assumed): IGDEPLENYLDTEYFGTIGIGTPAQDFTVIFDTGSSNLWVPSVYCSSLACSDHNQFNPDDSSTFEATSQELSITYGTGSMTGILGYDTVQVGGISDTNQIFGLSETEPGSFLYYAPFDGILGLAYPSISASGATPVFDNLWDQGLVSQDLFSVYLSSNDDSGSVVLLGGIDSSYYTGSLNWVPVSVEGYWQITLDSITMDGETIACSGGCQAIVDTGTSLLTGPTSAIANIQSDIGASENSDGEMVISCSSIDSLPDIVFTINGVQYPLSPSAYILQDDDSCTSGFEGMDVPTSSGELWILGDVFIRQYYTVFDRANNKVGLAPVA
# protocol summary: Inhibition of porcine pepsin enzyme at 1*10e-5
# assay setup: concentration not given here
experimental endpoint: inhibition (%)

compound_structure=CC(C)C[C@H](O)[C@H](O)[C@H](CC1CCCCC1)NC(=O)[C@H](Cc1c[nH]cn1)NC(=O)[C@H](Cc1ccccc1)NC(=O)N1CCC(O)CC1 target_system="Pepsin A (Sus scrofa) (UniProt P00791)" result=4
compound_structure=CC(C)C[C@H](O)[C@H](O)[C@H](CC1CCCCC1)NC(=O)[C@H](Cc1c[nH]cn1)NC(=O)/C(=C/c1ccccc1)CC(=O)N1CCOCC1 target_system="Pepsin A (Sus scrofa) (UniProt P00791)" result=8
compound_structure=CC(C)C[C@H](O)[C@H](O)[C@H](CC1CCCCC1)NC(=O)[C@H](Cc1c[nH]cn1)NC(=O)[C@H](Cc1ccccc1)NC(=O)N1CCOCC1 target_system="Pepsin A (Sus scrofa) (UniProt P00791)" result=0
compound_structure=CC(C)C[C@H](O)[C@H](O)[C@H](CC1CCCCC1)NC(=O)[C@H](Cc1c[nH]cn1)NC(=O)[C@H](Cc1ccccc1)NC(=O)N(C)CCO target_system="Pepsin A (Sus scrofa) (UniProt P00791)" result=3
compound_structure=CC(C)C[C@H](O)[C@H](O)[C@H](CC1CCCCC1)NC(=O)[C@H](Cc1c[nH]cn1)N(C)C(=O)[C@H](Cc1ccccc1)NC(=O)N1CCOCC1 target_system="Pepsin A (Sus scrofa) (UniProt P00791)" result=0
compound_structure=COc1ccc(C[C@H](NC(=O)N2CCOCC2)C(=O)N[C@@H](Cc2c[nH]cn2)C(=O)N[C@@H](CC2CCCCC2)[C@@H](O)[C@@H](O)CC(C)C)cc1 target_system="Pepsin A (Sus scrofa) (UniProt P00791)" result=4
compound_structure=CC(C)C[C@H](O)[C@H](O)[C@H](CC1CCCCC1)NC(=O)[C@H](Cc1c[nH]cn1)NC(=O)/C(=C/c1ccccc1)NC(=O)N1CCOCC1 target_system="Pepsin A (Sus scrofa) (UniProt P00791)" result=0
compound_structure=CC(C)C[C@H](O)[C@H](O)[C@H](CC1CCCCC1)NC(=O)[C@H](Cc1c[nH]cn1)NC(=O)[C@@H](NC(=O)N1CCOCC1)C(C)(C)c1ccccc1 target_system="Pepsin A (Sus scrofa) (UniProt P00791)" result=3
compound_structure=CC(C)C[C@H](O)[C@H](O)[C@H](CC1CCCCC1)NC(=O)[C@H](Cc1c[nH]cn1)NC(=O)[C@@H](Cc1ccccc1)NC(=O)N1CCOCC1 target_system="Pepsin A (Sus scrofa) (UniProt P00791)" result=2
compound_structure=CC(C)C[C@H](O)[C@H](O)[C@H](CC1CCCCC1)NC(=O)[C@H](Cc1c[nH]cn1)NC(=O)[C@H](Cc1ccccc1)NC(=O)N(C)C target_system="Pepsin A (Sus scrofa) (UniProt P00791)" result=11
compound_structure=CC(C)C[C@H](O)[C@H](O)[C@H](CC1CCCCC1)NC(=O)[C@H](Cc1c[nH]cn1)NC(=O)[C@H](Cc1ccccc1)NC(=O)N1CCNCC1 target_system="Pepsin A (Sus scrofa) (UniProt P00791)" result=0
compound_structure=CC(C)C[C@H](O)[C@H](O)[C@H](CC1CCCCC1)NC(=O)[C@H](Cc1c[nH]cn1)NC(=O)[C@@H](CC(=O)N1CCOCC1)Cc1ccccc1 target_system="Pepsin A (Sus scrofa) (UniProt P00791)" result=0
compound_structure=CC(C)C[C@H](O)[C@H](O)[C@H](CC1CCCCC1)NC(=O)[C@H](Cc1c[nH]cn1)NC(=O)[C@H](Cc1ccccc1)OC(=O)N1CCOCC1 target_system="Pepsin A (Sus scrofa) (UniProt P00791)" result=0
compound_structure=CC(C)C[C@H](O)[C@H](O)[C@H](CC1CCCCC1)NC(=O)[C@H](Cc1c[nH]cn1)NC(=O)[C@H](CCc1ccccc1)NC(=O)N1CCOCC1 target_system="Pepsin A (Sus scrofa) (UniProt P00791)" result=6
